Data credit: ChEMBL document CHEMBL4627327

Provide the reported MIC of each item.
Test system: Staphylococcus aureus
Experiment: Antibacterial activity against methicillin-resistant Staphylococcus aureus isolate 612 assessed as bacterial growth inhibition measured after 18 hrs by CLSI protocol based two-fold serial microdilution method
Assay type: functional
Details: isolate 612, 18 h
Hi! Could you send only the number? It should be in µM, unit omitted.

**Q:** Reported MIC, compound CC[C@@H](C(=O)[C@@H](C)[C@@H](O)[C@H](C)[C@@H]1O[C@@H]([C@@H](CC)C(=O)O)CC[C@@H]1C)[C@H]1O[C@]2(C=CC(=O)[C@]3(CC[C@@](C)([C@H]4CC[C@](O)(CC)[C@H](C)O4)O3)O2)[C@H](C)C[C@@H]1C : ____
**A:** 2.67

**Q:** Reported MIC, compound CC[C@@H](C(=O)[C@@H](C)[C@@H](O)[C@H](C)[C@@H]1O[C@@H]([C@@H](CC)C(=O)ONC(=O)c2ccccc2O)CC[C@@H]1C)[C@H]1O[C@]2(C=C[C@@H](O)[C@]3(CC[C@@](C)([C@H]4CC[C@](O)(CC)[C@H](C)O4)O3)O2)[C@H](C)C[C@@H]1C : ____
**A:** 2.26

**Q:** Reported MIC, compound CC[C@@H](C(=O)[C@@H](C)[C@@H](O)[C@H](C)[C@@H]1O[C@@H]([C@@H](CC)C(=O)NCCc2ccc(F)cc2)CC[C@@H]1C)[C@H]1O[C@]2(C=C[C@@H](O)[C@]3(CC[C@@](C)([C@H]4CC[C@](O)(CC)[C@H](C)O4)O3)O2)[C@H](C)C[C@@H]1C : ____
**A:** 36.7

**Q:** Reported MIC, compound CC[C@@H](C(=O)[C@@H](C)[C@@H](O)[C@H](C)[C@@H]1O[C@@H]([C@@H](CC)C(=O)ONC(=O)c2ccccc2)CC[C@@H]1C)[C@H]1O[C@]2(C=CC(=O)[C@]3(CC[C@@](C)([C@H]4CC[C@](O)(CC)[C@H](C)O4)O3)O2)[C@H](C)C[C@@H]1C : ____
**A:** 18.4

**Q:** Reported MIC, compound CC[C@@H](C(=O)[C@@H](C)[C@@H](O)[C@H](C)[C@@H]1O[C@@H]([C@@H](CC)C(=O)ONC(=O)c2ccccc2O)CC[C@@H]1C)[C@H]1O[C@]2(C=CC(=O)[C@]3(CC[C@@](C)([C@H]4CC[C@](O)(CC)[C@H](C)O4)O3)O2)[C@H](C)C[C@@H]1C : ____
**A:** 4.52

----------
Test system: Staphylococcus aureus
Assay: Antibacterial activity against methicillin-resistant Staphylococcus aureus isolate 750 assessed as bacterial growth inhibition measured after 18 hrs by CLSI protocol based two-fold serial microdilution method
Format: functional
Conditions: isolate 750, 18 h
measured.parameter: MIC (µM)
Hi! Could you send only the number? It should be in µM, unit omitted.

**Q:** Any idea what MIC came out for CC[C@@H](C(=O)[C@@H](C)[C@@H](O)[C@H](C)[C@@H]1O[C@@H]([C@@H](CC)C(=O)O)CC[C@@H]1C)[C@H]1O[C@]2(C=CC(=O)[C@]3(CC[C@@](C)([C@H]4CC[C@](O)(CC)[C@H](C)O4)O3)O2)[C@H](C)C[C@@H]1C on Staphylococcus aureus?
**A:** 2.67

**Q:** Any idea what MIC came out for CC[C@@H](C(=O)[C@@H](C)[C@@H](O)[C@H](C)[C@@H]1O[C@@H]([C@@H](CC)C(=O)ONC(=O)c2ccccc2O)CC[C@@H]1C)[C@H]1O[C@]2(C=C[C@@H](O)[C@]3(CC[C@@](C)([C@H]4CC[C@](O)(CC)[C@H](C)O4)O3)O2)[C@H](C)C[C@@H]1C on Staphylococcus aureus?
**A:** 2.26

**Q:** Any idea what MIC came out for CC[C@@H](C(=O)[C@@H](C)[C@@H](O)[C@H](C)[C@@H]1O[C@@H]([C@@H](CC)C(=O)ONC(=O)c2ccccc2)CC[C@@H]1C)[C@H]1O[C@]2(C=C[C@@H](O)[C@]3(CC[C@@](C)([C@H]4CC[C@](O)(CC)[C@H](C)O4)O3)O2)[C@H](C)C[C@@H]1C on Staphylococcus aureus?
**A:** 4.6

**Q:** Any idea what MIC came out for CC[C@@H](C(=O)[C@@H](C)[C@@H](O)[C@H](C)[C@@H]1O[C@@H]([C@@H](CC)C(=O)ONC(=O)c2ccccc2)CC[C@@H]1C)[C@H]1O[C@]2(C=CC(=O)[C@]3(CC[C@@](C)([C@H]4CC[C@](O)(CC)[C@H](C)O4)O3)O2)[C@H](C)C[C@@H]1C on Staphylococcus aureus?
**A:** 18.4
